# Tested on: Bromodomain-containing protein 4 (Homo sapiens)
# Protocol summary: Inhibition of BRD4-BD1 (unknown origin)
Readout type: pIC50
Scale note: pIC50 = -log10(concentration in M).

Q: For the molecule Cc1sc2c(c1C)C(c1ccc(Cl)cc1)=N[C@@H](CC(=O)NCc1ccc(/C=C/C(=O)NO)cc1)c1nnc(C)n1-2 , report pIC50.
Result: 5.87

Q: Provide only the value of recorded pIC50 for CC(=O)N1c2ccc(-c3ccc(NC(=O)CCCCCCC(=O)NO)cc3)cc2[C@H](NC(=O)OC(C)C)C[C@@H]1C
Result: 6.60

Q: Supply reported pIC50 belonging to this molecule: Cc1sc2c(c1C)C(c1ccc(Cl)cc1)=N[C@@H](CC(=O)Nc1ccc(C(=O)Nc3ccccc3N)cc1)c1nnc(C)n1-2
Result: 6.14

Q: Please look at this molecule and report its pIC50: Cc1sc2c(c1C)C(c1ccc(Cl)cc1)=N[C@@H](CC(=O)Nc1ccc(NC(=O)CCCCCCC(=O)NO)cc1)c1nnc(C)n1-2
Result: 5.34

----------
# Tested on: Bromodomain testis-specific protein (Homo sapiens)
# Protocol summary: Inhibition of recombinant BRDT-BD2 (unknown origin) by TR-FRET assay
Readout type: pIC50
Please treat pIC50 as minus the base-10 logarithm of the molar concentration.

Q: Answer with the recorded pIC50 of Cc1sc2c(c1C)C(c1ccc(Cl)cc1)=N[C@@H](CC(=O)Nc1ccc(C(=O)NO)cc1)c1nnc(C)n1-2 only.
Result: 7.96

----------
# Tested on: Bromodomain-containing protein 4 (Homo sapiens)
# Protocol summary: Inhibition of BRD4-BD2 (unknown origin)
Provide the recorded IC50 for the entries that follow.
# unit: nM | format: bare number

Q: Dear colleague, please send me the reported IC50 for Cc1sc2c(c1C)C(c1ccc(Cl)cc1)=N[C@@H](CC(=O)Nc1ccc(NC(=O)CCCCCCC(=O)NO)cc1)c1nnc(C)n1-2 when you can.
Result: 11000

Q: Kindly indicate its recorded IC50. Item: Cc1sc2c(c1C)C(c1ccc(Cl)cc1)=N[C@@H](CC(=O)NCc1ccc(/C=C/C(=O)NO)cc1)c1nnc(C)n1-2
Result: 1580

Q: Supply reported IC50 belonging to this compound: Cc1sc2c(c1C)C(c1ccc(Cl)cc1)=N[C@@H](CC(=O)Nc1ccc(C(=O)Nc3ccccc3N)cc1)c1nnc(C)n1-2
Result: 74

----------
# Tested on: Bromodomain-containing protein 3 (Homo sapiens)
# Sequence (Q15059 whole entry): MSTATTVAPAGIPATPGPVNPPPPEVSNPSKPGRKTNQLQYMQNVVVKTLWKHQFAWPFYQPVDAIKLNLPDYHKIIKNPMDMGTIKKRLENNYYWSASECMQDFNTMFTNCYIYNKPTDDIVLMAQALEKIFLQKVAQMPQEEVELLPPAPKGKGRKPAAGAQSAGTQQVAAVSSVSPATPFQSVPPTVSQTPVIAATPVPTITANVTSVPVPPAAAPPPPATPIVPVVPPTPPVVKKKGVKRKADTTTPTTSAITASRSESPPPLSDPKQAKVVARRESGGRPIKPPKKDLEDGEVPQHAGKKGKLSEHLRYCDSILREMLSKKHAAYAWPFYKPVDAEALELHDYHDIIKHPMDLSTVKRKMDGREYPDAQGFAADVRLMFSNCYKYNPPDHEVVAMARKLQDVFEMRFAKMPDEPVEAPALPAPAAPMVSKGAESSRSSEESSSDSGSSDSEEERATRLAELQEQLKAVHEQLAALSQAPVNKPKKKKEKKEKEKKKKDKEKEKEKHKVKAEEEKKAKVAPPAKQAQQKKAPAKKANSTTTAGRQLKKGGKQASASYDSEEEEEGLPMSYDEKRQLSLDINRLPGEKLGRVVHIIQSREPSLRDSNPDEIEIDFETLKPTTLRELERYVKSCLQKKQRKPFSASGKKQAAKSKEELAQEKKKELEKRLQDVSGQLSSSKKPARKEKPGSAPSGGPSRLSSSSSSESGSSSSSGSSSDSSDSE
# Protocol summary: Inhibition of recombinant BRD3-BD2 (unknown origin) by TR-FRET assay
Readout type: IC50

Q: Provide IC50 value for the following molecule: Cc1sc2c(c1C)C(c1ccc(Cl)cc1)=N[C@@H](CC(=O)Nc1ccc(C(=O)NO)cc1)c1nnc(C)n1-2
Result: 11 nM

----------
# Tested on: Bromodomain-containing protein 2 (Homo sapiens)
# Sequence (P25440 whole entry): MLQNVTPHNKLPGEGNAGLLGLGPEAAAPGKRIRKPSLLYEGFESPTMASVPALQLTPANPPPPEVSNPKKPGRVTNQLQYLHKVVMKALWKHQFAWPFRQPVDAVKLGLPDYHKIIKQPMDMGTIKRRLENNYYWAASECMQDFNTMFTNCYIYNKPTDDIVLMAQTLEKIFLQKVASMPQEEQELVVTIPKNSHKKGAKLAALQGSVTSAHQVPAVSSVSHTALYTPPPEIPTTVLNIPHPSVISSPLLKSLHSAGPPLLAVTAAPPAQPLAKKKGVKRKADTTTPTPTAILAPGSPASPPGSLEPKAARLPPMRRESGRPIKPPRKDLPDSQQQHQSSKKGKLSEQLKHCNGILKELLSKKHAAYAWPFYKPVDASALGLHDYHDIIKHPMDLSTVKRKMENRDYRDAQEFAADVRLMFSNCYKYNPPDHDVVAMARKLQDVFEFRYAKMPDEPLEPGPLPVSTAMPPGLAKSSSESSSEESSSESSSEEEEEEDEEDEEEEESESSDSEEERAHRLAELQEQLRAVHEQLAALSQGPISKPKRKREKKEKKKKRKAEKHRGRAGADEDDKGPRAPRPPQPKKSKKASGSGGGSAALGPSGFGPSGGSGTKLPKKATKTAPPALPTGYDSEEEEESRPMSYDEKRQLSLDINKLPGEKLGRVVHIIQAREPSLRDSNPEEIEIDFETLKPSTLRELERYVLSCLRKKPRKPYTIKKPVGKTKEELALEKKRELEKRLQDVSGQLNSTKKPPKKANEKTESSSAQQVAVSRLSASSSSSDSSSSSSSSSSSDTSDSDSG
# Protocol summary: Inhibition of recombinant BRD2-BD2 (unknown origin) by TR-FRET assay
Readout type: pIC50
Lab note — pIC50 values are minus log10 of concentrations in M.

Q: Provide Bromodomain-containing protein 2 (Homo sapiens) pIC50 reading for Cc1sc2c(c1C)C(c1ccc(Cl)cc1)=N[C@@H](CC(=O)Nc1ccc(C(=O)NO)cc1)c1nnc(C)n1-2 .
Result: 7.96

----------
# Tested on: Bromodomain testis-specific protein (Homo sapiens)
# Protocol summary: Inhibition of recombinant BRDT-BD1 (unknown origin) by TR-FRET assay
Readout type: IC50 (nM)
Write it as a number; the unit nM goes unstated.

Q: Give the reported IC50 for this molecule. Cc1sc2c(c1C)C(c1ccc(Cl)cc1)=N[C@@H](CC(=O)Nc1ccc(C(=O)NO)cc1)c1nnc(C)n1-2
Result: 11

----------
Record form. Attribute: IC50. Fill in for each entry.

Q: Jot down IC50 (Histone deacetylase 1 (Homo sapiens, UniProt Q13547)) of Cc1sc2c(c1C)C(c1ccc(Cl)cc1)=N[C@@H](CC(=O)Nc1ccc(NC(=O)CCCCCCC(=O)NO)cc1)c1nnc(C)n1-2 .
Result: 1110 nM

Q: Name the recorded IC50 of Cc1sc2c(c1C)C(c1ccc(Cl)cc1)=N[C@@H](CC(=O)NCc1ccc(/C=C/C(=O)NO)cc1)c1nnc(C)n1-2 , assay system Histone deacetylase 1 (Homo sapiens, UniProt Q13547).
Result: > 20000 nM

Q: Provide measured IC50 on Histone deacetylase 1 (Homo sapiens, UniProt Q13547) for Cc1sc2c(c1C)C(c1ccc(Cl)cc1)=N[C@@H](CC(=O)Nc1ccc(C(=O)Nc3ccccc3N)cc1)c1nnc(C)n1-2 please.
Sequence (Q13547 whole entry): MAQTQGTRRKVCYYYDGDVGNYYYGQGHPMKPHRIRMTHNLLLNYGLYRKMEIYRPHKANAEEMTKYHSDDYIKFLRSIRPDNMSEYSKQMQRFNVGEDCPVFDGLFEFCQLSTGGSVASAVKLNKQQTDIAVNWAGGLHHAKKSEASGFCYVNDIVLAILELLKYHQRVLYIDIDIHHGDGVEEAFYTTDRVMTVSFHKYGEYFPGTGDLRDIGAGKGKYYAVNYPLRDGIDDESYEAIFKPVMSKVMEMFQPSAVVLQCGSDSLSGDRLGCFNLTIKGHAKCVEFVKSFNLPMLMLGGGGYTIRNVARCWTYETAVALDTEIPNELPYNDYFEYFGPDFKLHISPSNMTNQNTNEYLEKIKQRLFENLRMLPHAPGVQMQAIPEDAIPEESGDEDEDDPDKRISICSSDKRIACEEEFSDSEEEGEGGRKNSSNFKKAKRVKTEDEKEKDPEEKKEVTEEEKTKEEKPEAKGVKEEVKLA
Result: 290 nM

----------
# Tested on: Bromodomain-containing protein 4 (Homo sapiens, UniProt O60885)
# Protocol summary: Inhibition of GST-tagged BRD4 (unknown origin) by HTRF assay
Readout type: IC50

Q: State, in one line, measured IC50 of COC(c1c(F)cccc1Cl)c1c[nH]c2ncc(-c3c(C)noc3C)cc12 (stereo unspecified)
Result: < 1 µM
